- Tested on: ATP;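 note: ATP exposure 15 min at 22 °C before imaging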
- Assay summary: switch fluorescence ratio, 500 uM ATP over buffer (Cy3 cluster intensity, sum of 5 cycles each) (fold (ratio)); higher = stronger signal-on switching upon ATP binding; sequences stand for … in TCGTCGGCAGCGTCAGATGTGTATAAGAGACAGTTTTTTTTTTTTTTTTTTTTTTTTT…TC
- Measurement context: aptamer strand: ATP DNA aptamer (quencher-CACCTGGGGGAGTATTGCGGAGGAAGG + anchor), 100 nM annealed; ATP concentration: 500 uM
Below is a list of entries, each paired with its recorded switch fluorescence ratio value.
No unit in the answer, only the number.

Example entries and their recorded answers appear below.
For the sequence AGATGGGGTT , report switch fluorescence ratio.
1.01

For the sequence CGTGGATGGT , report switch fluorescence ratio.
0.993

For the sequence GAGCGTAAGT , report switch fluorescence ratio.
0.958

For the sequence TCATAAGGGC , report switch fluorescence ratio.
1.01

More entries:
For the sequence ATTAAGGTCG , report switch fluorescence ratio.
1.07

For the sequence GGTGTGGGGA , report switch fluorescence ratio.
0.994

For the sequence TCAGGTGTGA , report switch fluorescence ratio.
1.27

For the sequence AGACTGACAA , report switch fluorescence ratio.
1.1

For the sequence AGTAGGAAGC , report switch fluorescence ratio.
1.01

For the sequence CCGGTCAGCC , report switch fluorescence ratio.
1.11

For the sequence ATTCGTTCGA , report switch fluorescence ratio.
0.996

For the sequence GAGCTGGAGG , report switch fluorescence ratio.
1

For the sequence GTAAGGAAAT , report switch fluorescence ratio.
1.01

For the sequence CCGTATATCC , report switch fluorescence ratio.
2.44

For the sequence GAGGTGTTGC , report switch fluorescence ratio.
0.985

For the sequence CCATGTCAGC , report switch fluorescence ratio.
1.03

----------
- Tested on: ATP;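 note: ATP exposure 15 min at 22 °C before imaging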
- Assay summary: switch fluorescence ratio, 500 uM ATP over buffer (Cy3 cluster intensity, sum of 5 cycles each) (fold (ratio)); higher = stronger signal-on switching upon ATP binding; sequences stand for … in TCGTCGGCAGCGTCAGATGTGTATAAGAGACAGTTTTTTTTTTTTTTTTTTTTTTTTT…TC
- Measurement context: aptamer strand: ATP DNA aptamer (quencher-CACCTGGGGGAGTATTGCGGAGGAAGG + anchor), 100 nM annealed; ATP concentration: 500 uM
Observation type: switch fluorescence ratio
No unit in the answer, only the number.

Report switch fluorescence ratio on ATP for this entry: CGTGCTTGTA
1.01

Report switch fluorescence ratio on ATP for this entry: TACACGCCTT
1.05

Report switch fluorescence ratio on ATP for this entry: AATGGCAGTG
1

Report switch fluorescence ratio on ATP for this entry: AGTTATACAC
1.01

More entries:
Report switch fluorescence ratio on ATP for this entry: TGCTGGACTT
0.987

Report switch fluorescence ratio on ATP for this entry: ATCCAGGGTA
1.01

Report switch fluorescence ratio on ATP for this entry: GTTACATTAA
1.01

Report switch fluorescence ratio on ATP for this entry: TGGATTATGT
1

Report switch fluorescence ratio on ATP for this entry: AGGTGGTCGG
0.966

Report switch fluorescence ratio on ATP for this entry: CTGGACATGT
0.976

Report switch fluorescence ratio on ATP for this entry: GAGAATTGAA
0.99

Report switch fluorescence ratio on ATP for this entry: TTGAATGTTG
1

Report switch fluorescence ratio on ATP for this entry: TTCGATATGT
0.984

Report switch fluorescence ratio on ATP for this entry: TAGGTACCAG
0.984

Report switch fluorescence ratio on ATP for this entry: TTTAGGACGC
1.02

Report switch fluorescence ratio on ATP for this entry: GGGGGCCTAA
1

Report switch fluorescence ratio on ATP for this entry: AATCATTATT
1.01

Report switch fluorescence ratio on ATP for this entry: AACGGGGGGA
0.979

Report switch fluorescence ratio on ATP for this entry: AACGGAGCTT
1.47

Report switch fluorescence ratio on ATP for this entry: GCTTTCATTT
1.01

Report switch fluorescence ratio on ATP for this entry: ACGTGGTGTG
1.02
